The measured values listed here are drawn from ChEMBL document CHEMBL5528029.

- Assayed System: BDNF/NT-3 growth factors receptor (Homo sapiens) (UniProt Q16620)
- Sequence (Q16620 32-822 limits assumed): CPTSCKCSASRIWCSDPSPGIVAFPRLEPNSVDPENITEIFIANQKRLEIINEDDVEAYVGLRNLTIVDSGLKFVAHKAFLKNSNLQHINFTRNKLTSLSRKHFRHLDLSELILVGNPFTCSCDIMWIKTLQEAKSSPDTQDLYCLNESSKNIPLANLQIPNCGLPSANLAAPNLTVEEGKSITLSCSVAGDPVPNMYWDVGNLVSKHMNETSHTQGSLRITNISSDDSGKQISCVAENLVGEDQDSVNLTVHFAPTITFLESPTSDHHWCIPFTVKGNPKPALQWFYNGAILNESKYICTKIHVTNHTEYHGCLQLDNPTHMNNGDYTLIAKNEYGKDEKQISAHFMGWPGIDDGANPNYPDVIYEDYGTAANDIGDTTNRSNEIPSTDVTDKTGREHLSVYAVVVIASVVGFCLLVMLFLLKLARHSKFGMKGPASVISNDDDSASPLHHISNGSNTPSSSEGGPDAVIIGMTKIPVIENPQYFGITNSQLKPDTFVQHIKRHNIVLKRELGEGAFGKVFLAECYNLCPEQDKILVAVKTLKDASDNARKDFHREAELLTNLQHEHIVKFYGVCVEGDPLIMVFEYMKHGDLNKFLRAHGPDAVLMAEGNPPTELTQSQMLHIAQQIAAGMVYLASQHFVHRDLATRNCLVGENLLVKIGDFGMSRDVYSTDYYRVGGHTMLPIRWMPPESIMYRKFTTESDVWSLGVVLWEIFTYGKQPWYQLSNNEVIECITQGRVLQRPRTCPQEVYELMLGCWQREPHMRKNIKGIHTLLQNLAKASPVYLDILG
- Assay Details: Inhibition of TRK-B (unknown origin) assessed as remaining activity at 1 uM using fluorescein-poly GAT as substrate in presence of ATP by TR-FRET assay relative to control
Value Kind: Activity (%)

- Compound String: "COc1ccc2c(c1)c(CNC(=O)Nc1ccc(C(F)(F)F)cc1)cn2CC(=O)N1CCCC1"
  Assayed System: "BDNF/NT-3 growth factors receptor (Homo sapiens) (UniProt Q16620)"
  Activity / %: 72.2
- Compound String: "O=C(NCc1cn(CC(=O)N2CCCC2)c2ccc(F)cc12)Nc1ccccc1Cl"
  Assayed System: "BDNF/NT-3 growth factors receptor (Homo sapiens) (UniProt Q16620)"
  Activity / %: 81.5
- Compound String: "COc1ccc2c(c1)c(CNC(=O)Nc1ccc(C)cc1)cn2CC(=O)N1CCCC1"
  Assayed System: "BDNF/NT-3 growth factors receptor (Homo sapiens) (UniProt Q16620)"
  Activity / %: 87.9
- Compound String: "COc1ccc(NC(=O)NCc2cn(CC(=O)N3CCCCC3)c3ccc(OC)cc23)cc1"
  Assayed System: "BDNF/NT-3 growth factors receptor (Homo sapiens) (UniProt Q16620)"
  Activity / %: 87.4
- Compound String: "Cc1ccc(NC(=O)NCc2cn(CC(=O)N3CCCCC3)c3ccc(F)cc23)cc1"
  Assayed System: "BDNF/NT-3 growth factors receptor (Homo sapiens) (UniProt Q16620)"
  Activity / %: 97
- Compound String: "COc1ccc2c(c1)c(CNC(=O)Nc1ccc(C(F)(F)F)cc1)cn2CC(=O)N1CCCCC1"
  Assayed System: "BDNF/NT-3 growth factors receptor (Homo sapiens) (UniProt Q16620)"
  Activity / %: 74.9
- Compound String: "COc1ccc2c(c1)c(CNC(=O)Nc1ccc(F)cc1F)cn2CC(=O)N1CCCC1"
  Assayed System: "BDNF/NT-3 growth factors receptor (Homo sapiens) (UniProt Q16620)"
  Activity / %: 104
- Compound String: "O=C(NCc1cn(CC(=O)N2CCCC2)c2ccc(F)cc12)Nc1ccc(C(F)(F)F)cc1"
  Assayed System: "BDNF/NT-3 growth factors receptor (Homo sapiens) (UniProt Q16620)"
  Activity / %: 101
- Compound String: "COc1ccc2c(c1)c(CNC(=O)Nc1ccc(C(F)(F)F)cc1)cn2CC(=O)N1CCOCC1"
  Assayed System: "BDNF/NT-3 growth factors receptor (Homo sapiens) (UniProt Q16620)"
  Activity / %: 79

###

- Assayed System: BDNF/NT-3 growth factors receptor (Homo sapiens)
- Assay Details: Inhibition of TRK-B (unknown origin) assessed as remaining activity at 1 uM using fluorescein-poly GAT as substrate in presence of ATP by TR-FRET assay relative to control
Value Kind: Activity (%)

- Compound String: "O=C(NCc1cn(CC(=O)N2CCCC2)c2ccc(F)cc12)Nc1ccc(F)cc1F"
  Activity / %: 69.5
- Compound String: "COc1ccc2c(c1)c(CNC(=O)Nc1ccc(F)cc1F)cn2CC(=O)N1CCN(C)CC1"
  Activity / %: 88.9
- Compound String: "COc1ccc2c(c1)c(CNC(=O)Nc1ccc(F)cc1F)cn2CC(=O)N1CCCCC1"
  Activity / %: 70.8
- Compound String: "COc1ccc(NC(=O)NCc2cn(CC(=O)N3CCOCC3)c3ccc(F)cc23)cc1"
  Activity / %: 107
- Compound String: "CN1CCN(C(=O)Cn2cc(CNC(=O)Nc3ccccc3Cl)c3cc(F)ccc32)CC1"
  Activity / %: 89.6
- Compound String: "COc1ccc2c(c1)c(CNC(=O)Nc1ccccc1Cl)cn2CC(=O)N1CCOCC1"
  Activity / %: 97.2
- Compound String: "COc1ccc2c(c1)c(CNC(=O)Nc1ccc(C(F)(F)F)cc1)cn2CC(=O)N1CCN(C)CC1"
  Activity / %: 104
- Compound String: "COc1ccc2c(c1)c(CNC(=O)Nc1ccc(C)cc1)cn2CC(=O)N1CCCCC1"
  Activity / %: 85.7
- Compound String: "COc1ccc2c(c1)c(CNC(=O)Nc1ccccc1Cl)cn2CC(=O)N1CCN(C)CC1"
  Activity / %: 93.4
